The reported measurements were obtained from patent US11466044B2.

Test system: N. gonorrhoeae
measurement.description: Disk diffusion, N. gonorrhoeae
Assay type: cell-based
settings: 25 nmol
endpoint.label: Disk diffusion 25 nmol N. gonorrhoeae

Worked cases, answers included:
C[C@@H](O)[C@H]1O[C@H](O[C@H]2[C@H](O[C@@H]3O[C@H](CO)[C@@H](O[C@H]4O[C@@H](CN)[C@@H](O)[C@H](O)[C@H]4N)[C@H]3O)[C@@H](O)[C@H](N)C[C@@H]2N)[C@H](N)[C@@H](O)[C@@H]1O [Compound 155, 6′(R)-6′-C-Methylparomomycin] :: 8 mm
CCC[C@@H]1C(CO)O[C@H](O[C@@H]2C(N)C[C@@H](NC(=O)[C@@H](O)CCN)C(O)[C@H]2O[C@@H]2O[C@H](CO)[C@H](O[C@H]3C[C@@H](CN)[C@@H](O)C(O)C3N)C2O)[C@@H](N)C1O (some centres unmarked) :: 11 mm
CC(O)C1OC(OC2C(N)CC(N)C(O)C2OC2OC(CO)C(OC3OC(CN)C(O)C(O)C3N)C2O)C(N)C(O)C1O (centres unmarked) :: 10 mm
NC[C@@H]1O[C@H](O[C@H]2[C@@H](O)[C@H](O[C@@H]3[C@@H](O)[C@H](N)C[C@H](N)[C@H]3O[C@H]3O[C@H](CN)[C@@H](O)[C@H](O)[C@H]3N)O[C@@H]2CO)[C@H](N)[C@@H](O)[C@@H]1O [neomycin, Neomycin B, reference compound] :: <8 mm

Next up:
What value of Disk diffusion 25 nmol N. gonorrhoeae has been reported for the following compound? CC(N)C1OC(OC2C(N)CC(N)C(O)C2OC2OC(CO)C(OC3OC(CN)C(O)C(O)C3N)C2O)C(N)C(O)C1O (centres unmarked)
12 mm
